Reference for the values: patent US20200317779A1

system tested: recombinant human CD3ε/δ heterodimer (human) (UniProt P07766)
Sequence (P07766 23-126, stated change not applied, chain 1 of 2): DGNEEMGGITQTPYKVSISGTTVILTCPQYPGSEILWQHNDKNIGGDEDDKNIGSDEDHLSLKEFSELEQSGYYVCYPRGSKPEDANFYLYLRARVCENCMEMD
Sequence (P04234 22-105, stated change not applied, chain 2 of 2, further chain): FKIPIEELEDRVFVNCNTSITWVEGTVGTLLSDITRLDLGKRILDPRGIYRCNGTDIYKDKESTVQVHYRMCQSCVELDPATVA
test summary: ELISA, coated CD3ε/δ
Response field label takes true when Absorbance (450 nm) is strictly below 0.4 and false in all other cases.

F01 (antibody, human IgG1, lambda, L234A L235A, V domains shown) VH: EVQLVESGGGLVQPGGSLKLSCAASGFTFNTYAMNWVRQASGKGLEWVARIRSKYNNYATYYADSVKDRFTISRDDSKNTLYLQMNSLKTEDTAVYYCVRHGNFGNSYVSWFAYWGQGTLVTVSS VL: QAVVTQEPSLTVSPGGTVTLTCRSSTGAVTTSNYANWFQQKPGQAPRTLIYGTNKRAPWTPARFSGSLLGGKAALTLSGAQPEDEAEYYCALWYSNLWVFGGGTKLTVLG : true
G01 (antibody, human IgG1, lambda, L234A L235A, V domains shown) VH: EVQLVESGGGLVQPGGSLKLSCAASGFTFNTYAMNWVRQASGKGLEWVARIRSKYNNYATYYADSVKDRFTISRDDSQSTAYLQMNSLKTEDTAVYYCVRHGNFGNSYVSWFAYWGQGTLVTVSS VL: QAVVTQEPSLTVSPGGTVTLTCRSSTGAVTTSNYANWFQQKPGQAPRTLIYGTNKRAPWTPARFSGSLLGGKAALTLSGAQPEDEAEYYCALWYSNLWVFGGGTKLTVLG : true
G09 (antibody, human IgG1, lambda, L234A L235A, V domains shown) VH: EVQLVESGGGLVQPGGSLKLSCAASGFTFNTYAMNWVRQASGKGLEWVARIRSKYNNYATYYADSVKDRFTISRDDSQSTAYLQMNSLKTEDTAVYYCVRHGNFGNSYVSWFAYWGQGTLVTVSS VL: QAVVTQEPSLTVSPGGTVTLTCRSSTGAVTTSNYANWVQQKPGQAPRTLIYGTNKRAPWTPARFSGSLLGGKAALTLSGAQPEDEAEYYCALWYSNLWVFGGGTKLTVLG : true

Hello, is Absorbance (450 nm) of the following binder strictly smaller than 0.4? H05 (antibody, human IgG1, lambda, L234A L235A, V domains shown) VH: EVQLVESGGGLVQPGGSLKLSCAASGFTFNTYAMNWVRQASGKGLEWVARIRSKYNNYATYYADSVKDRFTISRDDSQSTLYLQMNSLKTEDTAVYYCVRHGNFGNSYVSWFAYWGQGTLVTVSS VL: QAVVTQEPSLTVSPGGTVTLTCRSSTGAVTTSNYANWFQQKPGQAPRGLIYGTNKRAPWTPARFSGSLLGGKAALTLSGAQPEDEAEYYCALWYSNLWVFGGGTKLTVLG
true

Hello, is Absorbance (450 nm) of the following binder strictly smaller than 0.4? C12 (antibody, human IgG1, lambda, L234A L235A, V domains shown) VH: EVQLVESGGGLVQPGGSLKLSCAASGFTFNTYAMNWVRQASGKGLEWVGRIRSKYNNYATYYADSVKDRFTISRDDSQSTAYLQMNSLKTEDTAVYYCVRHGNFGNSYVSWFAYWGQGTLVTVSS VL: QAVVTQEPSLTVSPGGTVTLTCRSSTGAVTTSNYANWVQQKPGQAPRTLIGGTNKRAPWTPARFSGSLLGDKAALTLSGAQPEDEAEYYCALWYSNLWVFGGGTKLTVLG
true
